biological target: PI3K δ (Homo sapiens, UniProt O00329); construct: purchased Upstate / Millipore Corporation; test: PI 3-Kinase (human) HTRF assay, PI3K δ; type: biochemical; conditions: read-out: PI3K δ IC50
Sequence (O00329 whole entry): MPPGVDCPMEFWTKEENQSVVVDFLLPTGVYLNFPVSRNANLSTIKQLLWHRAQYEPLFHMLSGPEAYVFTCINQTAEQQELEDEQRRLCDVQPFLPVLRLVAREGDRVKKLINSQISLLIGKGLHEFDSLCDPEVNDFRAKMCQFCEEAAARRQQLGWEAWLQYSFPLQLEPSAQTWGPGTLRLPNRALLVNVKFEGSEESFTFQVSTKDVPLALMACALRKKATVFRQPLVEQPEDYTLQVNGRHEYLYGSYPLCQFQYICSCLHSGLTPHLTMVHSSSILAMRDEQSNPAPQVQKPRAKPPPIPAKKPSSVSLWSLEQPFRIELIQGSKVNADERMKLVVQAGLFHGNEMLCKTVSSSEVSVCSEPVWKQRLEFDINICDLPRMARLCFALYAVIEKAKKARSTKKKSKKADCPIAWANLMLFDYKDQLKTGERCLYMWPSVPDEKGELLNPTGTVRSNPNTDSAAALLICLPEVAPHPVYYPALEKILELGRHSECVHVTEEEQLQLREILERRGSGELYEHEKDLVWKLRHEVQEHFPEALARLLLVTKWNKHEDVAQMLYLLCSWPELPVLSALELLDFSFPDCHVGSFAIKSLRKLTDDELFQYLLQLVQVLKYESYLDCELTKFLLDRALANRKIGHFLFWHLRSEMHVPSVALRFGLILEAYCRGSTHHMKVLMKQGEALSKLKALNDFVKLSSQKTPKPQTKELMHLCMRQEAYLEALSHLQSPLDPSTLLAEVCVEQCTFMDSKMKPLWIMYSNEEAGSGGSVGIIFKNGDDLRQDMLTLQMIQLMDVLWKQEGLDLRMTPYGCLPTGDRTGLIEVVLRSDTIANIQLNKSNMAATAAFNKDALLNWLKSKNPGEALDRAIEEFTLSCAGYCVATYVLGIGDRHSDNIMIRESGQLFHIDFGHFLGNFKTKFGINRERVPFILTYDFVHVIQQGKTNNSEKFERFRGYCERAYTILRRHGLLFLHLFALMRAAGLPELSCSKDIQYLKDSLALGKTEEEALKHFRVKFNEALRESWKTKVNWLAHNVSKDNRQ
Sequence (P27986 whole entry partner): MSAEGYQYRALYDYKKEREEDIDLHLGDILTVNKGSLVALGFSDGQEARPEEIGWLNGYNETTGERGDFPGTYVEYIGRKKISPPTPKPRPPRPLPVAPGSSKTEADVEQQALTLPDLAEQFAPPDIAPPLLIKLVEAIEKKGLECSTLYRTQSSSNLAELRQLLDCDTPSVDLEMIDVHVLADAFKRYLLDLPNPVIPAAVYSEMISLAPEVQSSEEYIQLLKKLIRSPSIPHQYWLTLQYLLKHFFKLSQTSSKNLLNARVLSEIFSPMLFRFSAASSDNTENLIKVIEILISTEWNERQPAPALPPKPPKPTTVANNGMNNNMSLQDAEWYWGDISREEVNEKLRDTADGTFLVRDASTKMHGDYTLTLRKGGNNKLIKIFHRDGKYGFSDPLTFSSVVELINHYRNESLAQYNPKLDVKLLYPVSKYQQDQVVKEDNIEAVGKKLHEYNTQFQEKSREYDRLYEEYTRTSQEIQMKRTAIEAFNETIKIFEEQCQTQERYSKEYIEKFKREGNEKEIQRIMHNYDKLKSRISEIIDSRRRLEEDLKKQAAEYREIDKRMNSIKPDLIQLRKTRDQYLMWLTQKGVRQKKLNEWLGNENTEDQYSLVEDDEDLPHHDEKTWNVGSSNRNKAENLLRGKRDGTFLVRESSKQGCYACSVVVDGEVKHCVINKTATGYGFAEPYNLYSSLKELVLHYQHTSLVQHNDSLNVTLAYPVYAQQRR
Measured quantity: IC50

O=C(c1cnc2ccc(-c3cnc4cc[nH]c4c3)cn12)N1CCOCC1 [Compound 534]    > 10 µM
Nc1nc2cc(-c3ccc4ncc(-c5cn[nH]c5)n4n3)ccc2o1 [Compound 59]    < 1 µM
CNS(=O)(=O)c1cncc(-c2ccc3ncc(C(=O)N4CCOCC4)n3c2)c1 [Compound 450]    > 10 µM
Nc1nc2cc(-c3ccc4[nH]nc(N)c4c3)ccc2o1 [Compound 427]    > 10 µM
NC(=O)[C@H]1CCCN1C(=O)C1CN(c2cnc3ccc(-c4ccc5oc(N)nc5c4)cc3n2)C1 [Compound 284]    < 10 µM

Check PI3K δ (Homo sapiens, UniProt O00329) data and give IC50 for Nc1nc2cc(-c3cn4c(-c5ccncc5)cnc4cn3)ccc2o1 [Compound 68] .
< 10 µM

Check PI3K δ (Homo sapiens, UniProt O00329) data and give IC50 for Nc1nc2cc(-c3ccc4ncc(C(=O)N5CCC(N)CC5)n4c3)ccc2o1 [Compound 204] .
> 10 µM

Check PI3K δ (Homo sapiens, UniProt O00329) data and give IC50 for Nc1nc2cc(-c3ccc4ncc(N5CC(C(=O)N6CCN(CC7CC7)CC6)C5)nc4c3)ccc2o1 [Compound 287] .
< 1 µM

Check PI3K δ (Homo sapiens, UniProt O00329) data and give IC50 for Nc1nc2cc(-c3ccc4ncn(C5CCNCC5)c(=O)c4c3)ccc2o1 [Compound 75] .
> 10 µM

Check PI3K δ (Homo sapiens, UniProt O00329) data and give IC50 for C[C@H]1CN(C(=O)C2CN(c3cnc4ccc(-c5ccc6oc(N)nc6c5)cc4n3)C2)CCN1 [Compound 268] .
< 10 µM

----------
This listing pairs molecules with measured pIC50.
target: mTOR (Homo sapiens, UniProt P42345); construct: purchased Invitrogen; test: mTOR kinase inhibition assay (radiometric or LanthaScreen TR-FRET); assay type: biochemical; settings: read-out: mTORC IC50
Sequence (P42345 1360-2549 limits assumed): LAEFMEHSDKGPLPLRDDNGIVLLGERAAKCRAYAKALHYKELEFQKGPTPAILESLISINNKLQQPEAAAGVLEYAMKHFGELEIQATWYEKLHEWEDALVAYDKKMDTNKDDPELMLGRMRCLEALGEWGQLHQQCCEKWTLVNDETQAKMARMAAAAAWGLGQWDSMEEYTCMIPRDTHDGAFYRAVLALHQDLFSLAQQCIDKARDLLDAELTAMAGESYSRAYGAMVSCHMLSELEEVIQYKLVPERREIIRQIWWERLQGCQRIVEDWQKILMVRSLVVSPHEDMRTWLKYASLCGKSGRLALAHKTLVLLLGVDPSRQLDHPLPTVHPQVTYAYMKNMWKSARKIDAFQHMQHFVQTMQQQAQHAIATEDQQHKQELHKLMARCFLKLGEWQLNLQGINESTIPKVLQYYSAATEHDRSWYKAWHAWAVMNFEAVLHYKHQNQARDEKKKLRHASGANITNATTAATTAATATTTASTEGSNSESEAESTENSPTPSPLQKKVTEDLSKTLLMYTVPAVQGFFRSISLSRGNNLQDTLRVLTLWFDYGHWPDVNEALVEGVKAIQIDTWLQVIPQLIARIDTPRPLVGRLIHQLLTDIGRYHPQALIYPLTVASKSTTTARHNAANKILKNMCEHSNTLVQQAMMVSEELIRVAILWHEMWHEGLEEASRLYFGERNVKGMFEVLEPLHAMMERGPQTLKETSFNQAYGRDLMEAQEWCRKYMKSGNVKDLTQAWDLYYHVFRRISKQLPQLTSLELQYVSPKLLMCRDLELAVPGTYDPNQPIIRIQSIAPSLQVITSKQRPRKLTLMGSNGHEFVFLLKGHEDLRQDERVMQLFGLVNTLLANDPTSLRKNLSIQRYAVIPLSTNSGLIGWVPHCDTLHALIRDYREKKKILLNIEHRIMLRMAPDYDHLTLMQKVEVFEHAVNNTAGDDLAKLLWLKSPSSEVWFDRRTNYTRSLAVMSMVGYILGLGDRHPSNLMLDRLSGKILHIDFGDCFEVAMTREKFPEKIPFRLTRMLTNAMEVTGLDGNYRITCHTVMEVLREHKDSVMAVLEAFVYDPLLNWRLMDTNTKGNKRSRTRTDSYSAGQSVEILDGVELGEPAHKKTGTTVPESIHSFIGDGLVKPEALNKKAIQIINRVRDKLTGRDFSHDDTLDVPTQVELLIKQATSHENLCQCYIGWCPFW
pIC50: −log10 of the molar value.

Consider the following illustrative entries.
Nc1nc2cc(-c3ccc4ncc(N5CCNC(=O)C5)nc4c3)ccc2o1 [Compound 135]    < 5.00
CN1CCC(n2cnc3ccc(-c4ccc5oc(N)nc5c4)cc3c2=O)CC1 [Compound 36]    > 5.00
Cc1cc2oc(N)nc2cc1-c1ccc2ncc(N3CC(N4CCOCC4)C3)nc2c1 [Compound 353]    < 5.00
Nc1ccc2cc(-c3ccc4nccc(-c5ccncc5)c4c3)ccc2n1 [Compound 5]    > 6.00
CCN(CC)C1CN(c2cnc3ccc(-c4ccc5oc(N)nc5c4)cc3n2)C1 [Compound 324]    < 5.00

Quote pIC50 reported for CN1CCC(Nc2ncnc3ccc(-c4ccc5oc(N)nc5c4)cc23)CC1 [Compound 35] please.
> 5.00

Quote pIC50 reported for COc1ncc(-c2ccc3ncc(C(=O)N4CCOCC4)n3c2)cc1NS(=O)(=O)c1ccc(F)cc1F [Compound 417] please.
> 6.00

Quote pIC50 reported for COC(=O)N1CCC(n2ncc3c(N4CCOCC4)nc(-c4ccc5oc(N)nc5c4)nc32)CC1 [Compound 330] please.
> 6.00

Quote pIC50 reported for Nc1nc2cc(-c3ccc4ncc(N5CC[C@H](O)C5)nc4c3)ccc2o1 [Compound 262] please.
> 5.00

Quote pIC50 reported for CN1CCN(C2CN(c3cnc4ccc(-c5ccc6oc(N)nc6c5)cc4n3)C2)CC1=O [Compound 323] please.
< 5.00
